measured.on: UniProtKB Q14973
assay.remarks: Screening taurocholate uptake assay (96-well, [14C]taurocholate, 10 µM drug)
condition.label: combined ranking from functional and binding assay B-scores
Counter-ions that a name gives are not always drawn.
measurement.kind: Ranking score

compound	measurement.kind	result
CCOC(=O)[C@H](CCc1ccccc1)N[C@H]1CCc2ccccc2N(CC(=O)O)C1=O [Benazepril HCl]	Ranking score	918.755
Cc1cc(NC(=O)C2=C(O)c3ccccc3S(=O)(=O)N2C)no1 [Isoxicam]	Ranking score	933.01
CN[C@@H]1[C@@H](O)[C@@H](O[C@@H]2[C@@H](O)[C@H](O[C@H]3OC(CN)=CC[C@H]3N)[C@@H](N)C[C@H]2N)OC[C@]1(C)O [Sisomicin sulfate]	Ranking score	1018.48

Okay, next one:
Input: I'd like to know its Ranking score. The compound in question is CCOc1ccc(Cc2nccc3cc(OCC)c(OCC)cc23)cc1OCC [Ethaverine hydrochloride]
Output: 885.91

----------
measured.on: human NTCP (Homo sapiens, UniProt Q14973)
assay.remarks: Screening taurocholate uptake assay (96-well, [14C]taurocholate, 10 µM drug)
condition.label: screening taurocholate uptake, 10 µM drug
Counter-ions that a name gives are not always drawn.
measurement.kind: B-score functional assay

Recorded results for 3 compounds are shown here.
compound	B-score functional assay
CCCCC[C@H](O)/C=C/[C@@H]1[C@@H](C/C=C\CCCC(=O)O)[C@@H](O)C[C@H]1O	0.508
Cc1cccc(CN2CCN(C(c3ccccc3)c3ccc(Cl)cc3)CC2)c1.Cl.Cl (stereo not drawn) [Meclozine dihydrochloride]	-1.455
CC1(C)S[C@@H]2[C@H](NC(=O)[C@H](NC(=O)N3CCNC3=O)c3ccccc3)C(=O)N2[C@H]1C(=O)O [Azlocillin sodium salt]	-0.407

Input: I'd like to know its B-score functional assay. The compound in question is CCC(=O)OCC(=O)[C@@]1(OC(=O)CC)[C@@H](C)C[C@H]2[C@@H]3CCC4=CC(=O)C=C[C@]4(C)[C@@]3(Cl)[C@@H](O)C[C@@]21C [Beclomethasone dipropionate]
Output: -3.95

Input: I'd like to know its B-score functional assay. The compound in question is CCOC(=O)C1=C(C)NC(C)=C(C(=O)OC)C1c1cccc(Cl)c1Cl (stereo not drawn)
Output: 1.073

Input: I'd like to know its B-score functional assay. The compound in question is COCC1=C(C(=O)OC(C)OC(=O)OC(C)C)N2C(=O)[C@@H](NC(=O)/C(=N\OC)c3csc(N)n3)[C@H]2SC1 (stereo partly drawn)
Output: -0.201

----------
measured.on: human NTCP (Homo sapiens, UniProt Q14973)
assay.remarks: Screening taurocholate uptake assay (96-well, [14C]taurocholate, 10 µM drug)
condition.label: Prestwick library screen, 10 µM drug; B-score of taurocholate uptake
// thresholds for B-score functional assay classes: LOW: < 0.2; MID: ≥ 0.2 and < 1; HIGH: ≥ 1

Input: Bin? Cc1ccccc1N1C(=O)c2cc(S(N)(=O)=O)c(Cl)cc2NC1C (stereo not drawn) [Metolazone]
Output: MID

----------
assay.remarks: in vitro
condition.label: human
measurement.kind: viability at 2 h, 100 µM (%)
Kindly answer with a numeric value in %, unit omitted.

Input: I'd like to know its viability at 2 h, 100 µM. The compound in question is O=C(O)c1cc(/N=N/c2ccc(S(=O)(=O)Nc3ccccn3)cc2)ccc1O [Sulfasalazine]
Output: 97.8

----------
measured.on: human NTCP (Homo sapiens)
assay.remarks: Screening taurocholate uptake assay (96-well, [14C]taurocholate, 10 µM drug)
condition.label: ranking score beside the functional and binding assay B-scores of the screen
measurement.kind: Ranking score
Reply with the value as a number alone.

> print(dat)
                                   molecule  recorded.number
1  CCC1(c2ccccc2)NC(=O)N(C)C1=O (centres unmarked) [Mephenytoin]          812.389
2  NC(=O)N1c2ccccc2C=Cc2ccccc21 [Carbamazepine]          671.795
3  C[C@]12C=CC(=O)C=C1CC[C@H]1[C@@H]3C[C@@H](O)[C@](O)(C(=O)CO)[C@@]3(C)C[C@H](O)[C@@]12F [Triamcinolone]          735.139
4  NC(=O)N1c2ccccc2CC(=O)c2ccccc21 [Oxcarbazepine]          789.959

Okay, next one:
Input: I'd like to know its Ranking score. The molecule in question is CCCc1cc(C(N)=S)ccn1 [Prothionamide]
Output: 776.121

----------
measured.on: human NTCP (Homo sapiens)
assay.remarks: Screening taurocholate uptake assay (96-well, [14C]taurocholate, 10 µM drug)
condition.label: screening taurocholate uptake, 10 µM drug
Answer not satisfied if B-score functional assay is under -0.8, and satisfied if it is -0.8 or more.

Here are 3 compounds together with their reported answers.
> print(dat)
                                   compound    label.class
1  CN(CCOc1ccc(CC2SC(=O)NC2=O)cc1)c1ccccn1.Cl (centres unmarked) [Rosiglitazone Hydrochloride]  not satisfied
2  CC(C)(C#N)c1cc(Cn2cncn2)cc(C(C)(C)C#N)c1      satisfied
3  CC1=C(CC(=O)O)c2cc(F)ccc2/C1=C\c1ccc([S+](C)[O-])cc1 (centres unmarked)  not satisfied

Next, consider the following compound.
Input: Hello, I need to know if C[C@@H]1C[C@@H]([C@H](O)CC2CC(=O)NC(=O)C2)C(=O)[C@@H](C)C1 [Cycloheximide] has measured B-score functional assay not below -0.8. Thanks!
Output: satisfied

----------
measured.on: human NTCP (Homo sapiens)
assay.remarks: Screening taurocholate uptake assay (96-well, [14C]taurocholate, 10 µM drug)
condition.label: combined ranking from functional and binding screening assays
Structures can show the parent of a compound that is named as a salt.
measurement.kind: Ranking score
Reply with the value as a number alone.

compound	Ranking score
C[C@H]1c2cccc(O)c2C(=O)C2=C(O)[C@]3(O)C(=O)C(C(N)=O)=C(O)[C@@H](N(C)C)[C@@H]3[C@@H](O)[C@@H]21 [Doxycycline hydrochloride]	380.385

Okay, next one:
Input: I'd like to know its Ranking score. The compound in question is C[C@]12CCC(=O)C=C1CC[C@@H]1[C@@H]2C(=O)C[C@@]2(C)[C@H]1CC[C@]2(O)C(=O)CO [Cortisone]
Output: 405.336

----------
Reported Ranking score is given for each of the following compounds.
measured.on: UniProtKB Q14973
Sequence (Q14973 1-349): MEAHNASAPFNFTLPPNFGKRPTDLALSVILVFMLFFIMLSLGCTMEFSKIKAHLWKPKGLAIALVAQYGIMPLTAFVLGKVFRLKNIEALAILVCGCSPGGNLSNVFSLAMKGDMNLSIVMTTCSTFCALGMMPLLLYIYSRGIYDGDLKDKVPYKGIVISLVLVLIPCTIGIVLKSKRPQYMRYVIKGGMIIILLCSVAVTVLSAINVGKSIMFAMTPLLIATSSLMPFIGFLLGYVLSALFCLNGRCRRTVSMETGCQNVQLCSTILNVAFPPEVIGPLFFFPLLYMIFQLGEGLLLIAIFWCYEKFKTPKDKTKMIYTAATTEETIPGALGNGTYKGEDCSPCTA
assay.remarks: Screening taurocholate uptake assay (96-well, [14C]taurocholate, 10 µM drug)
condition.label: combined ranking from functional and binding screening assays
Where a name gives a salt, the structure may show the parent alone.

Recorded results for 4 compounds are shown here.
> print(dat)
                                   compound   result
1  Cl.Clc1ccc(Cn2c(CN3CCCC3)nc3ccccc32)cc1 [Clemizole hydrochloride]  418.626
2  Cl.O=c1[nH]oc2c1CCNC2 [THIP Hydrochloride]  426.394
3  CCCNC(C)C(=O)Nc1ccccc1C (centres unmarked) [Prilocaine hydrochloride]  304.329
4  Cn1c(=O)c2[nH]cnc2n(C)c1=O [Theophylline monohydrate]  321.683

Okay, next one:
Input: I'd like to know its Ranking score. The compound in question is NCCCC(O)(P(=O)(O)O)P(=O)(O)O [Alendronate sodium]
Output: 453.598

----------
measured.on: human NTCP (Homo sapiens, UniProt Q14973)
Sequence (Q14973 1-349): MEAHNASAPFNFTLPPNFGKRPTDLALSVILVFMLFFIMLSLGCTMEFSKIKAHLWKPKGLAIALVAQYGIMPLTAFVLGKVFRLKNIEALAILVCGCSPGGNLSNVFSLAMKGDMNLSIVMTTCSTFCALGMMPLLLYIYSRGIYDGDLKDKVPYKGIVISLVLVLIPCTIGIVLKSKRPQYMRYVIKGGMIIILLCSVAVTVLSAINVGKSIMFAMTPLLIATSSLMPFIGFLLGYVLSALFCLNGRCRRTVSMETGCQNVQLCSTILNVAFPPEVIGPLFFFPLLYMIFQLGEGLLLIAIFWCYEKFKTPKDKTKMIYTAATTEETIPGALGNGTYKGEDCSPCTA
assay.remarks: Screening taurocholate uptake assay (96-well, [14C]taurocholate, 10 µM drug)
condition.label: combined ranking of functional and binding screening assays
# if measured Ranking score < 500: 1  # else: -1

Here are 3 compounds together with their reported answers.
> print(dat)
                                   compound  label.class
1       CCN(C)C(=O)Oc1cccc([C@H](C)N(C)C)c1           -1
2  CN(C(=O)C(Cl)Cl)c1ccc(OC(=O)c2ccco2)cc1 [Diloxanide furoate]           -1
3                Cn1cnc2c1c(=O)[nH]c(=O)n2C           -1

Input: Hi there! Is Ranking score for `Cc1cccc(C)c1NC(=O)CN1CCN(CCCC(c2ccc(F)cc2)c2ccc(F)cc2)CC1` below 500, do you know?
Output: 1

Input: Hi there! Is Ranking score for `N#Cc1ccc(C(c2ccc(C#N)cc2)n2cncn2)cc1` below 500, do you know?
Output: -1

Provenance of the data: paper PMC5681660
